B1: SNAP91 (parent)
chain: FAQPMMRPPFGAAAVPGTQLSPSP

variants of: B1; test: protein stability index of a GFP-peptide fusion (GPS, HEK-293T) (PSI 1-6); higher = more stable; conditions: c terminus: a fixed tail appended;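 note: lentivirally expressed fusions sorted by FACS into six bins by GFP to DsRed ratio, PSI derived from sequencing read proportions per bin multiplied by bin number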
MEASURE_NAME: protein stability index
Keep the answer to the number alone.

variant_label=M5K result=2.61
variant_label=L20E result=2.94
variant_label=P8A result=3.82
variant_label=A13I result=2.54
variant_label=R7K result=3.34

Endpoint output: protein stability index of M6V . Value?
3.87

Measured values drawn from the supplement of paper PMC10567573 for this set.
